target: Ubiquitin-activating enzyme e1, putative (Leishmania donovani (strain BPK282A1))
procedure-summary: Leishmania donovani Ubiquitin Activating Enzyme (LdE1)
Type: functional
Parameters: scale not given: direction of the effect not stated beside the values
setup-conditions: 30 µM
Measured potencies and affinities stand elsewhere.
Collected Percent Effect values appear next to each entry.
Your reply should be a number followed by the unit it is expressed in.

                                   compound        property  result
0  CC(C)c1nc(C2CCCN2C(=O)c2ccc(N(C)C)nn2)no1 (stereo unspecified)  Percent Effect   16.2%

Ask | Query: Percent Effect; subject: `CNC(=O)CCCNCc1c(C(C)C)nn(C)c1N(C)C`
Reply | 0%

Ask | Query: Percent Effect; subject: `CCOCCCNC(=O)c1cc(C)nc(N2CCCC2)n1`
Reply | 12%

Ask | Query: Percent Effect; subject: CC(C(=O)N1CCCN(Cc2ccc(C#N)cc2)CC1)n1ccnc1 (stereo unspecified)
Reply | 15.8%

Ask | Query: Percent Effect; subject: `Cc1cccc(-c2noc(CN3CCC(N4CCNC4=O)CC3)n2)c1`
Reply | 13%

Ask | Query: Percent Effect; subject: Cc1nc(C)n(CC2CCCCN2CCCS(=O)(=O)N(C)C)n1 (stereo unspecified)
Reply | 16.2%

Ask | Query: Percent Effect; subject: `COc1ccnc(N2CCN(C(=O)Cc3ccc(C)s3)CC2)n1`
Reply | -2.6%

Ask | Query: Percent Effect; subject: `Cn1cc(CN2CC[C@@H]3O[C@H](C(=O)N4CCOCC4)C[C@@H]32)cn1`
Reply | -2.7%

Ask | Query: Percent Effect; subject: CC(C)N(C)CC(=O)NC1CCc2nccn2C1 (stereo unspecified)
Reply | -5.33%

Ask | Query: Percent Effect; subject: CCn1cc(CN2CCCC(CO)(CCc3ccccc3)C2)c(C)n1 (stereo unspecified)
Reply | 8.11%

Ask | Query: Percent Effect; subject: `O=C(NC1CC1)[C@@H]1CCO[C@@H]2CCN(C3CCOCC3)C[C@@H]21`
Reply | 2.6%

----------
target: Proteasome subunit beta (Trypanosoma cruzi) (UniProt O96673)
Sequence (O96673 as listed by the source): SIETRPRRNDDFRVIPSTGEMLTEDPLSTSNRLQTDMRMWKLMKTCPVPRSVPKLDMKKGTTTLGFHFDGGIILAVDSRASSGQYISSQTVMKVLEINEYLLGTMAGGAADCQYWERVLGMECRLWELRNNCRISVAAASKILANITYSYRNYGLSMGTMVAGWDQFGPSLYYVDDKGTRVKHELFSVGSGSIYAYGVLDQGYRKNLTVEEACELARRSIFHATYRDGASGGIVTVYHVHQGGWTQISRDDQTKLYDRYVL
procedure-summary: Trypanosoma cruzi proteasome chymotrypsin-like activity (TcProtChymo) assay. Further: in the data most compounds retested in dose-response had high values.
Assay type: functional
Set-up: scale not given: direction of the effect not stated beside the values
setup-conditions: 9.37 µM
Classify as follows. Reported Percent Effect greater than or equal to 10%: t. Reported Percent Effect below: f.

Ask | In plain terms: is recorded Percent Effect at least 10% for COCc1nc(C(=O)N2CCCCC2Cn2cc(C)cn2)cs1 (stereo not given) ?
Reply | f

Ask | In plain terms: is recorded Percent Effect at least 10% for Cc1cc(C)c(CNC(=O)NCC2CCCO2)c(=O)[nH]1 (stereo not given) ?
Reply | f

Ask | In plain terms: is recorded Percent Effect at least 10% for `COCC(=O)NCc1cccc(Br)c1` ?
Reply | t

Ask | In plain terms: is recorded Percent Effect at least 10% for `CCN(CC)Cc1cn2c(n1)CN(C(=O)c1cc(C)on1)CC2` ?
Reply | t

----------
target: Chromo domain-containing protein 1 (Saccharomyces cerevisiae (strain ATCC 204508 / S288c) (Baker's yeast)) (UniProt P32657)
Sequence (P32657 whole entry, the tested form may be a part): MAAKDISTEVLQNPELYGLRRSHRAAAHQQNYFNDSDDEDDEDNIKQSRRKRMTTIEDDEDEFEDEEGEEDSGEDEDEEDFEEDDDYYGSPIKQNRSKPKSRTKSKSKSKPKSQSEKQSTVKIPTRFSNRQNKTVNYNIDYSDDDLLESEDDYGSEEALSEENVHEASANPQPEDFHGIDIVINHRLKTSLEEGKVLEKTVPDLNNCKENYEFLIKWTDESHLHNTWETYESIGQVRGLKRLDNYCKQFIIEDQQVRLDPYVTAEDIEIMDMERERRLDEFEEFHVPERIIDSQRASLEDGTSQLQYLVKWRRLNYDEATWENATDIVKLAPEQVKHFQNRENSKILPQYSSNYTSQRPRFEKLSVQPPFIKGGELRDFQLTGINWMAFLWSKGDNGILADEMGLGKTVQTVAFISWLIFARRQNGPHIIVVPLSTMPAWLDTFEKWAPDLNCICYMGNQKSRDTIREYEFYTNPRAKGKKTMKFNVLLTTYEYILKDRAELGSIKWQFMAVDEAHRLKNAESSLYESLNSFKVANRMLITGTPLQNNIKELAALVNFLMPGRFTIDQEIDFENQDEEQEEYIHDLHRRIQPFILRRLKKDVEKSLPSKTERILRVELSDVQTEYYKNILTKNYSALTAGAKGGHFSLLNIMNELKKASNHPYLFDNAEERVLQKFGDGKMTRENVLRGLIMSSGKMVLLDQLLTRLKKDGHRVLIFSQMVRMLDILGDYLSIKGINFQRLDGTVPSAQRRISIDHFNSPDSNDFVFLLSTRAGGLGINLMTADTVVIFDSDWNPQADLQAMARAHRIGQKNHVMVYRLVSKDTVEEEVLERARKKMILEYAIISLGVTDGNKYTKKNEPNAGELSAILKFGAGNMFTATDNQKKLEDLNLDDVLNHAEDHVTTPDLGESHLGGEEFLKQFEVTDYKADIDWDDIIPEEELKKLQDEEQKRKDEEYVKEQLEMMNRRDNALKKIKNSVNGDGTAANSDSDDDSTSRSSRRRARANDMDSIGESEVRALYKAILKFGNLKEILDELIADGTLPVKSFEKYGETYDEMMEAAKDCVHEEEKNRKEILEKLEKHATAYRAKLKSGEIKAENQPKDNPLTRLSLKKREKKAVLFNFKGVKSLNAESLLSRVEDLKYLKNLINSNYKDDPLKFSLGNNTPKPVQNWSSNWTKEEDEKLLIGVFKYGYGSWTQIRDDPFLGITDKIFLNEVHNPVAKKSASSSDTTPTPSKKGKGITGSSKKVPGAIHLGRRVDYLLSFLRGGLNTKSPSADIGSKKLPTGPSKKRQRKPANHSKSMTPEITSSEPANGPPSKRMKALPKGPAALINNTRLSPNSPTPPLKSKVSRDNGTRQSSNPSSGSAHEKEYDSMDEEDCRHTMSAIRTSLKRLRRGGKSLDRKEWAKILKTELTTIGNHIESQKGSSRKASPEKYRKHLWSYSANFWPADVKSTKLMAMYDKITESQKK
procedure-summary: ScCHD-1 Enzyme Inhibition Assay; further: in the data most compounds retested in dose-response had high values
Type: functional
Design: scale not given: direction of the effect not stated beside the values
setup-conditions: 30 µM
Percent Effect vs -10%: less than gives 1.0; not less than gives 0.0.

Worked examples, 6 molecules total:
>>> df
                                   molecule  assigned_category
0  Cc1nccn1CC1CCCN1S(=O)(=O)Cc1ccon1 (configuration not stated)                0.0
1  Cc1nc(CCNC(=O)C2CC(=O)N(C(C)(C)C)C2)sc1C (configuration not stated)                0.0
2           CCOc1ncccc1NC(=O)c1cc2c(s1)CCC2                0.0
3  Cc1ccc(CNC(=O)CN2CCN(CC(O)C3CC3)CC2)cc1 (configuration not stated)                0.0
4   CCn1cc(NC(=O)C2CCN(Cc3ccccc3C#N)CC2)cn1                0.0
5  CC(C)CN1CCN(C(=O)Nc2cc(C(F)(F)F)c[nH]c2=O)CC1                0.0

Ask | Please check: Percent Effect for CC(OCC1CC1)C(=O)N1CCCN(Cc2nccn2C)CC1 (configuration not stated) , strictly under -10% or not?
Reply | 1.0

----------
target: AMP-activated protein kinase, AMPK (Homo sapiens) (UniProt P54646+O43741+P54619+Q9UGJ0+Q9Y478+Q13131+Q9UGI9)
procedure-summary: AMP-dependent Kinase enzyme assay. An in vitro enzyme assay that detects ADP turnover that is directly proportional to AMPK activity. This uses naive AMPK that is activated during the assay with MK-8722
Type: functional
Set-up: scale not given: direction of the effect not stated beside the values
setup-conditions: 30 µM
property: Percent Effect (%)
Answer with a number only, understood to be in %.

Use the examples below as a reference point.
>>> print(df.to_string())
                                   compound  numeric_value
0  CCC(C)NC(=O)NCCCn1nc2ccccn2c1=O (centres undefined)          -4.74
1      c1cnc2c(C3CCN(Cc4ccsc4)CC3)n[nH]c2n1           10.3
2  CC(OCC1CC1)C(=O)N1CCCN(Cc2nccn2C)CC1 (centres undefined)          -2.47

Ask | Query: Percent Effect; subject: `c1ccc(OC[C@]23COC[C@H]2CN(c2ncccn2)C3)nc1`
Reply | 1.07

Ask | Query: Percent Effect; subject: COCc1cccc(NC(C)C(=O)N(C)Cc2ccccc2)c1 (centres undefined)
Reply | -16.3

Ask | Query: Percent Effect; subject: `COc1cccc2cc(CNC(C)(C)C(=O)N3CCC(O)CC3)oc12`
Reply | -3.21

Ask | Query: Percent Effect; subject: O=C(NCC1CCS(=O)(=O)C1)c1sccc1-c1ccc(F)cc1 (centres undefined)
Reply | -1.29

Ask | Query: Percent Effect; subject: `COc1cc(C(=O)N(Cc2ccco2)C2CC2)cc2c1OCCO2`
Reply | 8.94

Ask | Query: Percent Effect; subject: `Cc1cnn(CCNCc2ccccc2OCc2cccnc2)c1`
Reply | 2.64

Ask | Query: Percent Effect; subject: CC(O)CN1CCC(CNCc2ccc(S(C)(=O)=O)cc2)CC1 (centres undefined)
Reply | -8.77

----------
target: Arginase-2, mitochondrial (Homo sapiens)
Sequence (whole entry): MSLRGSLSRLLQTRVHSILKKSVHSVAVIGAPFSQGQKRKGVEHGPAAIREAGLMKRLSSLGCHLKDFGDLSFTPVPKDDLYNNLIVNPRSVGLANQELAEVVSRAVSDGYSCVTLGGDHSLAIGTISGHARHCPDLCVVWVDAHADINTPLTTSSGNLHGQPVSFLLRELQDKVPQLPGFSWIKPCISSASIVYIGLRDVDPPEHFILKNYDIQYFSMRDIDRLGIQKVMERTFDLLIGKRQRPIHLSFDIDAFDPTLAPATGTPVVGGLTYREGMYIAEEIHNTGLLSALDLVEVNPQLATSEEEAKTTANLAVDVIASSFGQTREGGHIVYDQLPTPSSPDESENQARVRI
procedure-summary: in vitro enzyme assay to detect the production of urea directly proportional to the activity of Arginase II; further: in the data most compounds retested in dose-response had high values
Assay type: functional
Design: scale not given: direction of the effect not stated beside the values
setup-conditions: 33.3 µM
property: Percent Effect (%)
Answer with a number only, understood to be in %.

Use the examples below as a reference point.
>>> print(df.to_string())
                                   molecule  numeric_value
0  CS(=O)(=O)N1CCCCCC1C1CCN(c2ncccc2C#N)CC1 (stereo unspecified)              0
1  CSCCNC(=O)c1ccc(OC2CCN(CC(C)(C)C)CC2)c(Cl)c1          0.248
2  c1cnn(CC2CN(c3ncnc4ccsc34)CCO2)c1 (stereo unspecified)          0.833

Ask | Query: Percent Effect; subject: Cc1cc(C)n(CC2CCCN2C(=O)c2cccc3[nH]ncc23)n1 (stereo unspecified)
Reply | -2.77

Ask | Query: Percent Effect; subject: CN(C)S(=O)(=O)c1ccc(CN2CCCC2CO)o1 (stereo unspecified)
Reply | -2.88

Ask | Query: Percent Effect; subject: Cc1cc(C)n(CC2CCCN2C(=O)CCCNc2ncccn2)n1 (stereo unspecified)
Reply | 1.15

----------
target: Ubiquitin-activating enzyme e1, putative (Leishmania donovani (strain BPK282A1)) (UniProt E9BSI1)
Sequence (E9BSI1 as listed by the source): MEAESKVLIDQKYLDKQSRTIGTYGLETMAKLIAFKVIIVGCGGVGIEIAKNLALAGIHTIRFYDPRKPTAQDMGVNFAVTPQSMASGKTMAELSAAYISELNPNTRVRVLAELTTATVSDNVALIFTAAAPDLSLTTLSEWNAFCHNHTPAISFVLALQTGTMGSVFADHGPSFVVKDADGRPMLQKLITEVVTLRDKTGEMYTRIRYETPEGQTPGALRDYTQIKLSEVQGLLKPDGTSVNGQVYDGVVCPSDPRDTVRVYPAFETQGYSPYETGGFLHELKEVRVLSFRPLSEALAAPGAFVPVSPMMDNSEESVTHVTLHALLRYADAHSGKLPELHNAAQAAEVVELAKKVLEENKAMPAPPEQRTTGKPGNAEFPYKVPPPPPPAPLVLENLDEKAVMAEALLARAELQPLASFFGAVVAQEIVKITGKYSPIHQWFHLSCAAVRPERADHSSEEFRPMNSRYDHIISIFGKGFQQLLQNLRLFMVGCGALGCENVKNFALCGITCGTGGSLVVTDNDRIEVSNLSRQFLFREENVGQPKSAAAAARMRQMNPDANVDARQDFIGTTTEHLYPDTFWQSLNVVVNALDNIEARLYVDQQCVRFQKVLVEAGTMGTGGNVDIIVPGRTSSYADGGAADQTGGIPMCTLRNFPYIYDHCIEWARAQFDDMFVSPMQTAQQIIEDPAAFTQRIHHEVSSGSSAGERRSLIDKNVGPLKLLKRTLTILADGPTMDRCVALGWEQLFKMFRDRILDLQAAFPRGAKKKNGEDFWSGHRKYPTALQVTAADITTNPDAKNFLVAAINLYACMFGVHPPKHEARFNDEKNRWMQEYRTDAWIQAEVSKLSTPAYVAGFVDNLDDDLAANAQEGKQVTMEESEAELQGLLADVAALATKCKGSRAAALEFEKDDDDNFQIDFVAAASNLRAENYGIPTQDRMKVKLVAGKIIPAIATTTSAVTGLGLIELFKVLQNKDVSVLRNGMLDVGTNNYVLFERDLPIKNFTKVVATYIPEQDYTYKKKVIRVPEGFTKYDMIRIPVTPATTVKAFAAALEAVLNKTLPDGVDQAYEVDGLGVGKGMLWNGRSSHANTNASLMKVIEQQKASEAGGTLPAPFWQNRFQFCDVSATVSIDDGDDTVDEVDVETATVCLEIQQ
procedure-summary: Leishmania donovani Ubiquitin Activating Enzyme (LdE1)
Type: functional
Set-up: scale not given: direction of the effect not stated beside the values
setup-conditions: 30 µM
Results with a measured potency or affinity are listed apart.
property: Percent Effect

Use the examples below as a reference point.
>>> df
                                   molecule        property  result
0     CN(Cc1ccc(F)cc1)C(=O)NCc1nnc2n1CCCCC2  Percent Effect   12.7%
1  Cn1cccc1C(=O)N[C@@H]1CN(CC2CC2)[C@@H]2COC[C@@H]21  Percent Effect   5.33%
2  CSCC(=O)N1CCCC1c1noc(C2CC2)n1 (configuration not stated)  Percent Effect   10.7%
3  C=C(C)CN(Cc1cccc(O)c1)C1CCC(O)CC1 (configuration not stated)  Percent Effect   5.41%
4  O=C(Cc1ccc(-n2cccn2)cc1)N1CCCC(n2cccn2)C1 (configuration not stated)  Percent Effect   10.4%

Ask | Query: Percent Effect; subject: `COCCN(Cc1ccoc1)C(=O)c1c(F)cccc1Cl`
Reply | 5.2%

Ask | Query: Percent Effect; subject: CC(C)c1nc(C2CCCN2Cc2ccno2)no1 (configuration not stated)
Reply | -2.6%

Ask | Query: Percent Effect; subject: Cc1ccc(C(=O)N2CCC3(CC2)NC(=O)CC3c2ccccc2)cn1 (configuration not stated)
Reply | 2.67%

Ask | Query: Percent Effect; subject: Cc1ccc(C(C)N(C)Cc2nc3c(cnn3C)c(=O)[nH]2)cc1 (configuration not stated)
Reply | 16.2%

Ask | Query: Percent Effect; subject: `O=S(=O)(NCc1ccccc1Cn1cncn1)C1CCCC1`
Reply | 8.86%

Ask | Query: Percent Effect; subject: `c1cc(CN2CCN(Cc3cscn3)CC2)cs1`
Reply | 10.4%

Ask | Query: Percent Effect; subject: `CCC(=O)N1CCc2[nH]cnc2C12CCN(C(=O)c1snnc1C)CC2`
Reply | 5.33%
